Source of measurements: patent US20090252013A1

Experiment: Solubility test in coating solvent (2,2,3,3-tetrafluoropropanol)
Assay type: physicochemical
Conditions: 1.0% by weight, 20° C., result in words
test-readout: solubility in a coating solvent at a concentration of 1.0% by weight

| molecule | reading |
| --- | --- |
| CCN(CC)C(=O)c1ccc(C2=N[N+](=CC=C3N(CC)c4ccc(OC)cc4C3(C)Cc3ccccc3)[Co-2]3([O]2)[O]C(c2ccc(C(=O)N(CC)CC)cc2)=N[N+]3=CC=C2N(CC)c3ccc(OC)cc3C2(C)Cc2ccccc2)cc1 (centres unmarked) | completely dissolved |
| CCN1C(=CC=[N+]2N=C(c3ccc(C(=O)OC)cc3)[O][Co-2]23[O]C(c2ccc(C(=O)OC)cc2)=N[N+]3=CC=C2N(CC)c3ccc(OC)cc3C2(C)Cc2ccccc2)C(C)(Cc2ccccc2)c2cc(OC)ccc21 (centres unmarked) | completely dissolved |
